Assay summary: yeast display, Sf9 membrane polyspecificity reagent, FACS + sequencing; frameworks hold sequencing errors
Readout type: polyreactivity (PSR sort gate)

>  <Sequence record>
QVQLVESGGGLVQAGGSLRLSCAASGRNFSLYAMGWYRQAPGKERELVAAISRGGSTYYADSVKGRFTISRDNAKNTVYLQMNSLKPEDTAVYYCAAAPDYRAEYDYWGQGTQVTVSS

>  <polyreactivity (PSR sort gate)>
low polyreactivity

$$$$
>  <Sequence record>
QVQLVESGGGLVQAVGSLRLSCAASGSIFPDNAMGWYRQAPRKERELVASISWSGGSTYYADSVKGRFTISRDNAKNPVYLQRNSLKPEDTAVYYCARTYYWYLRVDYWGQGTQVTVSS

>  <polyreactivity (PSR sort gate)>
low polyreactivity

$$$$
>  <Sequence record>
QVQLVDSGGGLVQAEGSLRLSCAPSGIIFGGYAMGWYIPAPGKERELVAAISRSGGSTYYADSVKGRFTISRDNAKNTVYLQMNSLKPEDTAVYYCAADGGAYEYDYWGQGTQVTVSS

>  <polyreactivity (PSR sort gate)>
high polyreactivity

$$$$
>  <Sequence record>
QVQLVESGGGLVQAGGSLRLSCAASGITFVWNAMGWYRQAPGKERELVATISRGGVRTYYADSVKGRFTISRDNAKNTVYLQMNSLKPEDTAVYYCAADGSYVHWEYGYWGQGTQGTVSS

>  <polyreactivity (PSR sort gate)>
low polyreactivity

$$$$
>  <Sequence record>
QVQLVESVGGLVQAGGSLRLSCAASGGIFNGYAMGWYRQAPGKERELVAAITASGARTYYADSVKGRFTISRDNAKNTVYLQMNSLKPEDTAVYYCAKGFSYPGGPYYYFLGYGYWGQGTQVTVSS

>  <polyreactivity (PSR sort gate)>
high polyreactivity

$$$$

Recorded result, QVQLVESGGGLVQAGGSLRLSCAASGFTFRIYAMGWYRQAPGKERELVAAISWAGGSTFYADSVKGRFTISRDNAKNTVYLQMNSLKPEDTAVYYCAADYGYFEYDYWGQGTQVTVSS , polyreactivity (PSR sort gate): low polyreactivity

Recorded result, QVQLVESGGGLVQAGGSLRLSCAASGSTLNRNVMGWYRQAPGKEREFVAVITYGVGSTYYADSVKGRFTISRDNAKNTVYLQMNSLKPEDTAVYYCNKDPLVFDYWGQGTQVTVSS , polyreactivity (PSR sort gate): low polyreactivity

* * *

Assay summary: yeast display, Sf9 membrane polyspecificity reagent, FACS + sequencing; frameworks hold sequencing errors
Readout type: polyreactivity (PSR sort gate)

See these solved cases before continuing.
>  <Sequence record>
QVQLVESGGGLVQAGGSLRLSCAASGSTFFTNAMGWYRQAPGKERELVAAITINDGSTFYADSVKGRFTISRDNAKNTVYLQMNSLKPEDTAVYYCNADGVDLYDYWGQGTQVTVSS

>  <polyreactivity (PSR sort gate)>
low polyreactivity

$$$$
>  <Sequence record>
QVQLVESGGGLVQAGGSLRLSCAASGFTFVYYAMGWYRQAPGTERELVAAISQSGSSTYYADSVKGRFTISRDNAKNTVYLQMNTLKPEDTAVYYCAAQEFQKRLGGSWWRYDYWGQGTQVTVSS

>  <polyreactivity (PSR sort gate)>
high polyreactivity

$$$$
>  <Sequence record>
QVQLVESGGGLVQAGGSLRLSCAASGITFYGNDMGWYRQAPGKERELVAAISANDGNTYYADSVKGRFTISRDNAKNTVYLQMNSLKPEDTAVYYCAAERYEDYTEYDYWGQGTQVTVSS

>  <polyreactivity (PSR sort gate)>
low polyreactivity

$$$$
>  <Sequence record>
QVQLVESGGGLVQAGGSLRLSCAASGSTFSYNAMGWYRQAPGKERELVAAITSRGGSTRYADSVKGRFTISRDNAKNTVYLQMNSLKPEDTAVYYCARPYSYYPYSTVNYWGQGTQVTVSS

>  <polyreactivity (PSR sort gate)>
high polyreactivity

$$$$
>  <Sequence record>
QVQLVESGGGLVQAGGSLRLSCAASGRIFGDYAMGWYRQAPGKEMELVAAITSAGSTHYADSVKGRFTISRDNAKNTVYLQMNILKPDDTAVYYCAADGIARAYVLFDAYDFLYDYWGQGTHVTVSS

>  <polyreactivity (PSR sort gate)>
low polyreactivity

$$$$
>  <Sequence record>
QVQLVESGGGLVQAGGSLRLSCDASGSTFSYYAMGGYRQAPGKERELVAAISGRGGSTYYADSVKGRFTISRDNAKNTVYLQMNSLKPEDTAVYYCAKGRLYTAYGLYSWGQGTQVTVSS

>  <polyreactivity (PSR sort gate)>
high polyreactivity

$$$$
>  <Sequence record>
QVQLVESGGGLVQAGGSLRLSCAASGSIFPYYAMGWSRQAPGKERELVASINQSDGTTYYADSVKGRFTISRDNAKNTVYLQMNSLKPEDTAVYYCAAAYFYWRVDKYYYWGQGTQVTVSS

>  <polyreactivity (PSR sort gate)>
low polyreactivity

$$$$
>  <Sequence record>
QVQLQESGGGLVQAGGSLRLSCAASGTISDSGLMGWYRQAPGKERELVAGISSGGITNYADSVKGRFTISRDNAKNTVYLQMKSLKPEDTAVYWGQGTQVTVSS

>  <polyreactivity (PSR sort gate)>
low polyreactivity

$$$$

Recorded result, QVQLVESGGGLVQAGGSLRLSCAASGRIFRSYAMGWYRQAPGKERELVAAISSGVITYYADSVKGRFTISRDNEKNTVYLQMNSLKPEDTAVYYCNARWRFLYDYWGQGTQVTVSS , polyreactivity (PSR sort gate): high polyreactivity

Recorded result, QVQLVESGGGLVQAGGSLRLSCAASGRTFLVYAMGWYRQAPGKERELVAAIRYSGSSTYADSVKGRFTISRDNAKNTVYLQMNSLKPEDTAVYDCNARRASYRSIYDYWGHGTQVTVSS , polyreactivity (PSR sort gate): high polyreactivity

Recorded result, QVQLQESGGVLVQAGGSLRLSCAASGSIYDDTYMGWYRQAPGKERELVATIDSGSTTNYADSVKGRITICRDNAKNSVDLQMNTLKPEDTAVYYCAAADSHIDYFDYWGQGTQVTVSS , polyreactivity (PSR sort gate): low polyreactivity
